Test system: HCT-15 colon
Test: NCI tumour cell line growth inhibition, 48 h
MEASURED_METRIC: TGI

A selection of reference data follows.
[[record]]
compound = "Nc1ccc(CC[C@H]2CCC/C=C/[C@@H]3C[C@H](O)C[C@H]3[C@H](O)/C=C/C(=O)O2)cc1"
result_value = "16.7 µM"

[[record]]
compound = "COC1OC2COC(=O)c3cc(O)c(O)c(O)c3-c3c(cc(O)c(O)c3O)C(=O)OC2C(O)C1O (stereo unspecified)"
result_value = "> 100 µM"

[[record]]
compound = "OC12CCC3(OC4CCCCO4)c4ccccc4C3C1c1ccccc12 (stereo unspecified)"
result_value = "> 100 µM"

[[record]]
compound = "NC1=Nc2cc(C(F)(F)F)ccc2Sc2nc3ccccc3n21"
result_value = "> 100 µM"

[[record]]
compound = "C/C(=C\\C(=O)Nc1ccc2n[nH]nc2c1)Nc1ccc2n[nH]nc2c1"
result_value = "> 100 µM"


Find the recorded TGI belonging to S=C(NCc1ccccn1)N/N=C/c1ccccn1 and report it.
> 100 µM

----------
Test system: MDA-MB-231 breast
Assay: NCI tumour cell line growth inhibition, 48 h
Below is a list of entries, each paired with its recorded GI50 value.

Example results:
[[record]]
compound = "C=CCC(N[C@@H](CO)c1ccccc1)c1ccc2ccccc2n1 (stereo not given in full)"
target_or_test_system = "MDA-MB-231 breast"
result_value = "45.8 µM"

[[record]]
compound = "Nc1ncn([C@H]2CC(O)[C@@H](CO)S2)c(=O)n1 (stereo not given in full)"
target_or_test_system = "MDA-MB-231 breast"
result_value = "3.57 µM"

[[record]]
compound = "CCn1cc(C(=O)O)c(=O)c2cc(F)c(N3CCN(S(=O)(=O)c4ccc(Cl)cc4Cl)CC3)cc21"
target_or_test_system = "MDA-MB-231 breast"
result_value = "1.88 µM"

[[record]]
compound = "O=C(/C=C/c1ccc(O)c(O)c1)N1CCN(c2ccc(Cl)cc2)CC1"
target_or_test_system = "MDA-MB-231 breast"
result_value = "5.28 µM"


As a next step, examine the compound that follows.
What measured GI50 goes with Clc1ccc2c(NCCNc3nc(N4CCOCC4)nc4ccccc34)ccnc2c1 ?
1.56 µM

----------
Test system: SNB-75 CNS
Assay: NCI tumour cell line growth inhibition, 48 h
MEASURED_METRIC: TGI

[[record]]
compound = "Cc1ccc(S(=O)(=O)N/N=C2\\C=CC3(CC2)C(=O)N(I)c2ccccc23)cc1 (stereo unspecified)"
measured_metric = "TGI"
result_value = "> 100 µM"

[[record]]
compound = "NCCCN(CCCCN(CCCN)CCCc1ccccc1)CCCc1ccccc1"
measured_metric = "TGI"
result_value = "5.04 µM"

[[record]]
compound = "Nc1nc(SCc2ccccc2Cl)c2ncn(C3OC(CO)C(O)C3O)c2n1 (stereo unspecified)"
measured_metric = "TGI"
result_value = "98.2 µM"

[[record]]
compound = "Cn1cc(-c2cc(-c3cn(C)c4ccccc34)[nH]n2)c2ccccc21"
measured_metric = "TGI"
result_value = "69.9 µM"

[[record]]
compound = "O=C(O)CNc1ccc2c(c1)Cc1cc(Br)ccc1-2"
measured_metric = "TGI"
result_value = "> 89.8 µM"


Query (compound): S=c1ssnc1-c1cc2ccccc2o1 ; field requested: TGI
95.8 µM

Need TGI of COC(=O)c1ccccc1C1CN=NC12Cc1ccc(C)cc1C2=O (stereo unspecified) , thanks.
> 100 µM

Given the compound O=c1c(-c2nc3ccccc3c3ccccc3c2=O)nc2ccccc2c2ccccc12 , what is its reported TGI?
94.9 µM

Requested read-out: TGI. Entry: O=C1C(Cl)=C(Nc2ccc(S(=O)(=O)c3ccc(NC4=C(Cl)C(=O)c5ccccc5C4=O)cc3)cc2)C(=O)c2ccccc21
2.33 µM

Report TGI for O=P(CN1CCOCC1)(c1ccccc1)c1ccccc1 please.
> 100 µM

Source of measurements: PubChem BioAssay (NCI)
